Target: COX-2 (Homo sapiens)
Construct: purchased Sigma-Aldrich
Sequence (P35354 18-604): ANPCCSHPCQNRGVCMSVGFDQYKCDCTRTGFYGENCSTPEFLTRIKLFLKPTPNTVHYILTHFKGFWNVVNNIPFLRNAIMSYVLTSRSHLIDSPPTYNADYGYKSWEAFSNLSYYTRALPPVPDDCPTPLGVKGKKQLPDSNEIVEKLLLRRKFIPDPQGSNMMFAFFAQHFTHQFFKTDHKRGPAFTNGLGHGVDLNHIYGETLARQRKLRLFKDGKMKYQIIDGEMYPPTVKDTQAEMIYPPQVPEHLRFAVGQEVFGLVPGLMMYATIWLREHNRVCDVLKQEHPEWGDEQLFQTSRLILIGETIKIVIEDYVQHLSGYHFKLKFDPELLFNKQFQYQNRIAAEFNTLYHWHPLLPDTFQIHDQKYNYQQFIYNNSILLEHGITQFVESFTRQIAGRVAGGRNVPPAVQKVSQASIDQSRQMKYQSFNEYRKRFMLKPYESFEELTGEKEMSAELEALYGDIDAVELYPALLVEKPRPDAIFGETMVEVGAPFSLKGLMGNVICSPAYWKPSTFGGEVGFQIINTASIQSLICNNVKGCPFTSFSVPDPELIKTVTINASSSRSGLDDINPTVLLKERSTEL
Test: Inhibition of cyclooxygenase 2 (spectrophotometric, TMPD)
Assay type: biochemical
Settings: Tris-HCl pH 8.0, room temperature; read-out: IC50 COX-2
Text: The probes 1,6-diphenyl-1,3,5-hexatriene (DPH), 3-[p-(6-phenyl)-1,3,5-hexatrienyl]propionic acid (DPH-PA), Merocyanine 540 (MC540), and N,N,N-trimethyl-4-(6-phenyl-1,3,5-hexatrien-1-yl)phenylammonium p-toluenesulfonate (TMA-DPH) were purchased from Molecular Probes (Eugene, OR, USA). Tris (hydroxymethyl) aminomethane (Tris:HCl) were obtained from “Chempur” (Piekary Śląskie, Poland). Quercetin (Q) was purchased from Sigma-Aldrich. […]

>  <compound>
CO[C@H]1[C@H](O)[C@@H](O)[C@H](Oc2cc(O)c3c(=O)c(O)c(-c4ccc(O)c(O)c4)oc3c2)O[C@@H]1CO [Q 7-MeGlu]

>  <IC50 / µM>
49.2

$$$$

// data source = paper PMC6151435
